The reported numbers originate from patent US20060069132A1.

# Test system: goosegrass
# test name: Test C pre-/postemergence herbicide test
# Format: in vivo, Eleusine indica
# stated conditions: 62 g ai/ha; preemergence; scale 0 to 100
assay metric: Plant response rating, Goosegrass
One number for each entry.

Reference set (8 entries):
CCn1nc(C2(C)CC2)cc1C(=O)Nc1cccc(C(=O)N2CC=CC2)c1 = 45
CCN1N=C(C(C)(C)C)CC1C(=O)Nc1cc(C(=O)N2CCCC2)ccc1F (racemic) = 85
CCn1nc(C(C)(C)C)cc1C(=O)Nc1cccc(OC(F)(F)C(F)F)c1 = 0
CCc1nn(C(C)(C)C)cc1C(=O)Nc1cccc(C(C)=NO)c1 = 15
CCNC(=O)c1cccc(NC(=O)c2nn(C(C)(C)CC)nc2CC)c1 = 80
CCc1nn(C(C)(C)CC)nc1C(=O)Nc1cccc(C(=O)N(C)C)c1 = 70
CCNC(=O)c1cc(C)nc(NC(=O)c2cc(C(C)(C)C)nn2CC)c1 = 10
CCn1nc(C(C)(C)C)cc1C(=O)Nc1cc(C(=O)N2CCCC2)ccc1F = 100

Ask: Name the recorded Plant response rating, Goosegrass of the item CCC1=NN(C(C)(C)C)CC1C(=O)Nc1cc(C(=O)N2CC=CC2)ccc1F (racemic) in your answer.
Result: 5
